This collection of values is drawn from patent US4988681A.

- procedureSummary: Pharmacokinetic evaluation: plasma concentration in rats
- Format: in vivo, Male SD rats
- experimentalContext: plasma; rat, ester po, 10 mg/kg equivalent to compound No. 2, calculated as free acid (No. 2), trapezoidal rule
- Experimental: (4) Pharmacokinetic evaluations Male SD rats ([…]) were divided into groups each consisting of three animals. […] Furthermore, cilastatin was intravenously administered to a 14th group as a control group. Plasma samples were taken periodically from the carotid artery through a cannula inserted into it at the points of 1/12, 1/4, 1/2, 1, 2, 4, 6, 8 and 24 hours after the administration. The area under the curve (AUC) of the plasma concentration was determined according to the trapezoidal rule.
metricName: AUC (ng·h/mL)
The response must be a number in ng·h/mL with no trailing unit.

Data request: Bench note: what AUC did `Cc1oc(=O)oc1COC(=O)/C(=C/C1CCCCC1)CP(=O)(O)CC(C)C` show?
Data returned: 56900
